Data provenance: patent US7022701B2

Biological target: human cloned 5-HT6 receptors (Homo sapiens, UniProt P50406)
Construct: expressed in transfected cells; host or cells: Hela cells
Sequence (P50406 whole entry): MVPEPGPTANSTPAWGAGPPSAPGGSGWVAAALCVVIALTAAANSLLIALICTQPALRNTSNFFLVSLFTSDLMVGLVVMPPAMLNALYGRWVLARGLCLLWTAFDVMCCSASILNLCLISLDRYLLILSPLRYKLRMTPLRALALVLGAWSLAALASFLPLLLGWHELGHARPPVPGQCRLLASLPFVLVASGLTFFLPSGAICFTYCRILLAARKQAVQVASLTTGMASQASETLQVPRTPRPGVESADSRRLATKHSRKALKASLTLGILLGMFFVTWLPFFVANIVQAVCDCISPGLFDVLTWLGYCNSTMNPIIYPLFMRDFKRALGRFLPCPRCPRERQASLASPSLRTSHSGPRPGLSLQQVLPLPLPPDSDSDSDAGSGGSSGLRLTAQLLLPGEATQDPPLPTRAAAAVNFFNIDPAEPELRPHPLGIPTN
Assay: 5-HT6 binding affinity, [3H]-LSD displacement on membranes of Hela cells expressing the receptor
Structures can show the parent of a compound that is named as a salt.
// reported log10(Ki) per item
Record value = log10 of Ki given in nM.

Please review the entries below; each comes with its answer.
> print(dat)
                                   compound                            assayed.system  property.name  value.measured
1  NCCc1cn(S(=O)(=O)c2c(Cl)nc3sccn23)c2cc(F)ccc12  human cloned 5-HT6 receptors (Homo sapiens, UniProt P50406)      log10(Ki)            0.70
2  COc1ccc2c(CCN)cn(S(=O)(=O)c3c(Cl)nc4sccn34)c2c1  human cloned 5-HT6 receptors (Homo sapiens, UniProt P50406)      log10(Ki)            1.11
3  O=S(=O)(c1c(Cl)nc2sccn12)n1cc(CCN2CCCC2)c2ccccc21  human cloned 5-HT6 receptors (Homo sapiens, UniProt P50406)      log10(Ki)            0.70
4  COc1ccc2c(c1)c(CCN)cn2S(=O)(=O)c1c(Cl)nc2sccn12  human cloned 5-HT6 receptors (Homo sapiens, UniProt P50406)      log10(Ki)            1.04
5  CN(C)CCc1cn(S(=O)(=O)c2c(Cl)nc3sc(Cl)cn23)c2ccccc12  human cloned 5-HT6 receptors (Homo sapiens, UniProt P50406)      log10(Ki)            1.00

What value of log10(Ki) has been reported for the following compound? CC(N)Cc1cn(S(=O)(=O)c2c(Cl)nc3sccn23)c2ccccc12 (stereo not drawn) [Example 12, Hydrochloride]
0.30

What value of log10(Ki) has been reported for the following compound? C[C@@H](N)Cc1cn(S(=O)(=O)c2c(Cl)nc3sccn23)c2ccccc12 [Example 16, Hydrochloride]
0.30

What value of log10(Ki) has been reported for the following compound? `Cc1cccc2c(CCN)cn(S(=O)(=O)c3c(Cl)nc4sccn34)c12`
2.54
